Reference source: patent US11351221B2

molecular target: XIAP (Homo sapiens, UniProt P98170); construct: endogenous in cells; assay: Caspase-3 derepression assay; settings: MDA-MB-231 hypotonic lysate activated with cytochrome c and dATP; zDEVD-R110(2) substrate
Sequence (P98170 whole entry): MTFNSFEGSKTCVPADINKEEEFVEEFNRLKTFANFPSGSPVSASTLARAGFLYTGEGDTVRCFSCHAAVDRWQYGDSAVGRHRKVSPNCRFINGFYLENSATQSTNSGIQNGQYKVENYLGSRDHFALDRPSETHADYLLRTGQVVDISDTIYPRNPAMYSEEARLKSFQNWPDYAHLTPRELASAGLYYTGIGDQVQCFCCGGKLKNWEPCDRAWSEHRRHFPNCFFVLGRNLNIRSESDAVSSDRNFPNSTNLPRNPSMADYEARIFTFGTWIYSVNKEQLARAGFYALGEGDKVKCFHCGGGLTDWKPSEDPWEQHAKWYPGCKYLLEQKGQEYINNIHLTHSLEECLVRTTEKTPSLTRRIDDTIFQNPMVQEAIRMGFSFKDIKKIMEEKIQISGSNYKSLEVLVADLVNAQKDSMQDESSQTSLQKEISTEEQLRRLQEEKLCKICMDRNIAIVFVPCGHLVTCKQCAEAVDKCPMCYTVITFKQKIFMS
For each record, write down the corresponding IC50.
One number for each entry, in nM.

Recorded results for 3 molecules are shown here.
| given-smiles | target | units-label | IC50 |
| --- | --- | --- | --- |
| CN[C@@H](C)C(=O)N[C@H](C(=O)N1C[C@@H](O)C[C@H]1Cc1c(-c2[nH]c3cc(F)ccc3c2C[C@@H]2C[C@H](O)CN2C(=O)[C@@H](NC(=O)[C@H](C)NC)C(C)C)[nH]c2cc(F)ccc12)C(C)C | XIAP (Homo sapiens, UniProt P98170) | nM | 13.4 |
| CN[C@@H](C)C(=O)N[C@H](C(=O)N1C[C@@H](O)C[C@H]1Cc1c(-c2[nH]c3cc(F)ccc3c2C[C@@H]2C[C@H](O)CN2C(=O)[C@@H](NC(=O)[C@H](C)NC)[C@@H](C)O)[nH]c2cc(F)ccc12)[C@@H](C)O | XIAP (Homo sapiens, UniProt P98170) | nM | 0.2 |
| CN[C@@H](C)C(=O)N[C@H](C(=O)N1C[C@@H](O)C[C@H]1Cc1c(-c2[nH]c3cc(F)ccc3c2C[C@@H]2C[C@H](O)CN2C(=O)[C@@H](NC(=O)[C@H](C)NC)[C@H](C)O)[nH]c2cc(F)ccc12)[C@H](C)O | XIAP (Homo sapiens, UniProt P98170) | nM | 0.35 |

Kindly consider the entry below.
Reading of IC50 for CN[C@@H](C)C(=O)N[C@H](C(=O)N1C[C@@H](O)C[C@H]1Cc1c(-c2[nH]c3cc(F)ccc3c2C[C@@H]2C[C@H](O)CN2C(=O)[C@@H](NC(=O)[C@H](C)NC)[C@@H](C)OC)[nH]c2cc(F)ccc12)[C@@H](C)OC with XIAP (Homo sapiens, UniProt P98170): 0.36

###

Provide the recorded DC50 for the entries that follow.
target: cIAP-1 (Homo sapiens); construct: expressed in transfected cells; host or cells: A375 (A375Gc1); experiment: cIAP degradation assay (GFP-cIAP-1); type: cell-based; settings: A375Gc1 cells, 2 h treatment, 50% of GFP signal inhibited (FACS); read-out: GFP-cIAP-1 IC50
Sequence (Q13490 whole entry, species assumed): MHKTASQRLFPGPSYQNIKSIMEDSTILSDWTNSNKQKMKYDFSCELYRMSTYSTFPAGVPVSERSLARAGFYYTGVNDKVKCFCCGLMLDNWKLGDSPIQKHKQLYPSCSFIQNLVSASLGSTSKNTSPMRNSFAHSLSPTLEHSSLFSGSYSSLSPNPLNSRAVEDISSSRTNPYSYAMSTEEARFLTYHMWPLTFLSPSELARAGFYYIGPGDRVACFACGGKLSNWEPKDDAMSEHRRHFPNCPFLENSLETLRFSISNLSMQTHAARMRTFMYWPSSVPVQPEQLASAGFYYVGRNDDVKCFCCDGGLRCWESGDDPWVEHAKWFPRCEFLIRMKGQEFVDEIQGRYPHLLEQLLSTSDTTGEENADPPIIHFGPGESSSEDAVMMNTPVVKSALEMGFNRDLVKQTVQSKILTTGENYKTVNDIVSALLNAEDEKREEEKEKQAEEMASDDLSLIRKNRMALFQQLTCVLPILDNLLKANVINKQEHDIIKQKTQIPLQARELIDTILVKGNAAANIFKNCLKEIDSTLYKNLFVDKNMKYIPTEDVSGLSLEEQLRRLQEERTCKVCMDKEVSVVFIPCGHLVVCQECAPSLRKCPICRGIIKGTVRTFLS
One number for each entry, in nM.

Here are 4 molecules. What values of DC50 were reported for them?
1. CN[C@@H](C)C(=O)N[C@H](C(=O)N1C[C@@H](O)C[C@H]1Cc1c(-c2[nH]c3cc(F)ccc3c2C[C@@H]2C[C@H](O)CN2C(=O)[C@@H](NC(=O)[C@H](C)NC)[C@@H](C)OC)[nH]c2cc(F)ccc12)[C@@H](C)OC
2. CN[C@@H](C)C(=O)N[C@H](C(=O)N1C[C@@H](O)C[C@H]1Cc1c(-c2[nH]c3cc(F)ccc3c2C[C@@H]2C[C@H](O)CN2C(=O)[C@@H](NC(=O)[C@H](C)NC)C(C)C)[nH]c2cc(F)ccc12)C(C)C
3. CN[C@@H](C)C(=O)N[C@H](C(=O)N1C[C@@H](O)C[C@H]1Cc1c(-c2[nH]c3cc(F)ccc3c2C[C@@H]2C[C@H](O)CN2C(=O)[C@@H](NC(=O)[C@H](C)NC)[C@H](C)O)[nH]c2cc(F)ccc12)[C@H](C)O
4. CN[C@@H](C)C(=O)N[C@H](C(=O)N1C[C@@H](O)C[C@H]1Cc1c(-c2[nH]c3cc(F)ccc3c2C[C@@H]2C[C@H](O)CN2C(=O)[C@@H](NC(=O)[C@H](C)NC)[C@@H](C)O)[nH]c2cc(F)ccc12)[C@@H](C)O

Response given:
1: 10; 2: 4; 3: 464; 4: 328

###

Target: cIAP-2 (Homo sapiens, UniProt Q13489)
Construct: expressed in transfected cells; host or cells: A375 (A375Gc2)
Sequence (Q13489 whole entry, species assumed): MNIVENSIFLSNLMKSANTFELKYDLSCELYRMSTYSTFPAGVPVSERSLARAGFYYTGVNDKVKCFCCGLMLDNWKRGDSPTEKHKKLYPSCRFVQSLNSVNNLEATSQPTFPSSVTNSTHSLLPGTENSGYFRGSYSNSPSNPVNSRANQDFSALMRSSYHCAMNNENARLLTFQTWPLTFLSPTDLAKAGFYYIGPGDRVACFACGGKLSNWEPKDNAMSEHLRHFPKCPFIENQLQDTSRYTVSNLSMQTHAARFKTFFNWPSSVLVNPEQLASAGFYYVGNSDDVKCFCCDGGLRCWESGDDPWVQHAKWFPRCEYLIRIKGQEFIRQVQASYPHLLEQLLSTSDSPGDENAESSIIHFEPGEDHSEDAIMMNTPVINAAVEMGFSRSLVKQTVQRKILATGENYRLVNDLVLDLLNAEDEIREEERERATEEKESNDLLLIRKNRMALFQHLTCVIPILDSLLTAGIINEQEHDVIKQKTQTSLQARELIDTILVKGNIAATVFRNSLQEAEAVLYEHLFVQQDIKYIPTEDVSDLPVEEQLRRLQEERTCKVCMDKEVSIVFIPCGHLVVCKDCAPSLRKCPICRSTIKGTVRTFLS
Test: cIAP degradation assay (GFP-cIAP-2)
Assay type: cell-based
Settings: A375Gc2 cells, 2 h treatment, 50% of GFP signal inhibited (FACS); read-out: GFP-cIAP-2 IC50
Description: The concentration inducing degradation of cIAP-1 and cIAP-2 by 50% (IC50) for various compounds was determined by monitoring the disappearance of Green Fluorescent Protein (GFP)-signal in A375 cells. Briefly, A375 cell lines expressing GFP-tagged cIAP-1 and cIAP-2 were generated by transfecting HA2xEGFP-pcDNA3 vector containing either cIAP-1 (A375Gc1) or cIAP-2 (A375Gc2) coding region. […]
observable: DC50 (nM)
Give bare numbers, in nM.

| compound | observable | observed |
| --- | --- | --- |
| CN[C@@H](C)C(=O)N[C@H](C(=O)N1C[C@@H](O)C[C@H]1Cc1c(-c2[nH]c3cc(F)ccc3c2C[C@@H]2C[C@H](O)CN2C(=O)[C@@H](NC(=O)[C@H](C)NC)[C@@H](C)OC)[nH]c2cc(F)ccc12)[C@@H](C)OC [Compound 5] | DC50 | 37 |
| CN[C@@H](C)C(=O)N[C@H](C(=O)N1C[C@@H](O)C[C@H]1Cc1c(-c2[nH]c3cc(F)ccc3c2C[C@@H]2C[C@H](O)CN2C(=O)[C@@H](NC(=O)[C@H](C)NC)[C@H](C)O)[nH]c2cc(F)ccc12)[C@H](C)O [Compound 4] | DC50 | 604 |
| CN[C@@H](C)C(=O)N[C@H](C(=O)N1C[C@@H](O)C[C@H]1Cc1c(-c2[nH]c3cc(F)ccc3c2C[C@@H]2C[C@H](O)CN2C(=O)[C@@H](NC(=O)[C@H](C)NC)C(C)C)[nH]c2cc(F)ccc12)C(C)C [Compound 2] | DC50 | 7 |
| CC[C@H](NC(=O)[C@H](C)NC)C(=O)N1C[C@@H](O)C[C@H]1Cc1c(-c2[nH]c3cc(F)ccc3c2C[C@@H]2C[C@H](O)CN2C(=O)[C@H](CC)NC(=O)[C@H](C)NC)[nH]c2cc(F)ccc12 [Compound 15] | DC50 | 174 |

Now let's try a different one.
Field DC50 (entry CN[C@@H](C)C(=O)N[C@H](C(=O)N1C[C@@H](O)C[C@H]1Cc1c(-c2[nH]c3cc(F)ccc3c2C[C@@H]2C[C@H](O)CN2C(=O)[C@@H](NC(=O)[C@H](C)NC)[C@@H](C)O)[nH]c2cc(F)ccc12)[C@@H](C)O [Compound 3] ) reads 674
